read-out: Potassium channel subfamily K member 1 (KCNK1), KCNK1 (gene 3775); experiment: LTEA_HepaRG_KCNK1: Life Technologies and Expression Analysis (LTEA) Assay for Potassium channel subfamily K member 1 (KCNK1) using HepaRG (AID 2283511); settings: mRNA level, 48 h; actives raise or lower the signal
Calls of active or inactive are those of the source. How the source made its calls: active means hit-call score of the fitted dose curve at least 0.9, where 1 is the maximum; inactive means score below 0.9.
Your answer must be one of the following: T (active), F (inactive)

These solved cases illustrate the format of a correct answer.
>>> label_value("CC(C)OC(=O)C(C)(C)Oc1ccc(C(=O)c2ccc(Cl)cc2)cc1")
"F"
>>> label_value("CO[C@@H]1COCC[C@@H]1N[C@@H]1CC[C@@](C(=O)N2CCc3ncc(C(F)(F)F)cc3C2)(C(C)C)C1")
"F"
>>> label_value("O=C1c2c(O)cccc2Cc2cccc(O)c21")
"F"

I'd appreciate the recorded outcome for `CC(N)=O` from this test.
F

For `CC(=O)OCC(COC(C)=O)OC(C)=O` then?
F

For `CCOCCOCCO` then?
F

For CCCCCCC(CCCCCCCCCCC(=O)OCC(COC(C)=O)OC(C)=O)OC(C)=O (stereo not drawn) then?
F

For `CCCCCCC(C=O)=Cc1ccccc1` then?
F

###

Assay: ATG_NRF2_ARE_CIS: Attagene CIS-FACTORIAL HepG2 Assay for human Nuclear Factor Erythroid 2 Related Factor 2 (NFR2) response to Antioxidant Response Elements (ARE) (AID 2282992)
Details: HepG2 Attagene ARE/NRF2 reporter, transcription factor activity; actives raise or lower the signal
Description: ATG_CIS is a cell-based, multiplexed-readout assay that uses HepG2, a human liver cell line, with measurements taken at 24 hours after chemical dosing in a 24-well plate.ATG_NRF2_ARE_CIS is one of 52 assay component(s) measured or calculated from the ATG_CIS assay. […] This assay endpoint, ATG_NRF2_ARE_CIS, was analyzed with bidirectional fitting relative to DMSO as the negative control and baseline of activity. […]
The source made the active and inactive calls. Rule for the calls: active = hit-call score of the fitted dose curve at least 0.9, where 1 is the maximum; inactive = score below 0.9.
Your answer must be one of the following: yes (1) (active), no (0) (inactive)

>>> label_value("CCOCCOCCO")
"no (0)"
>>> label_value("CCCCC(CC)COC(=O)CCCCCCCC(=O)OCC(CC)CCCC (configuration not stated)")
"no (0)"
>>> label_value("C#CC(O)C(CC)CCCC (configuration not stated)")
"yes (1)"
>>> label_value("O=C(O)CN(CC(=O)O)CC(=O)O")
"no (0)"
>>> label_value("CCCCOC(=O)CCCCC(=O)OCCCC")
"no (0)"
>>> label_value("O=C(O)c1cccnc1")
"no (0)"

I'd appreciate the recorded outcome for `O=C(O)c1[nH]n(-c2ccc(S(=O)(=O)O)cc2)c(=O)c1N=Nc1ccc(S(=O)(=O)O)cc1` from this test.
no (0)

###

read-out: UDP glucuronosyltransferase (UGT1A1), UGT1A1 (gene 54658); test: LTEA_HepaRG_UGT1A1: Life Technologies and Expression Analysis (LTEA) Assay for UDP glucuronosyltransferase (UGT1A1) using HepaRG (AID 2283538); conditions: mRNA level, 48 h; actives raise or lower the signal
The source made the active and inactive calls. How the source made its calls: active means hit-call score of the fitted dose curve at least 0.9, where 1 is the maximum; inactive means score below 0.9.
test readout: AC50

Worked cases, answers included:
>>> reported_result("CC(C)c1cccc(C(C)C)c1")
"inactive"
>>> reported_result("CC(C)COC(=O)CCCCC(=O)OCC(C)C")
"inactive"
>>> reported_result("CCCCC(CC)COC(=O)CCCCCCCC(=O)OCC(CC)CCCC (stereo not drawn)")
"inactive"
>>> reported_result("C=CCCCCCCCCCCCC")
"inactive"
>>> reported_result("COc1ccc(OC(F)(F)F)cc1CN[C@H]1CCCN[C@H]1c1ccccc1")
"83800 nM (active)"
>>> reported_result("CC(C)c1cccc(C(C)C)c1NC(=O)NS(=O)(=O)c1cc(C(C)(C)O)co1")
"inactive"
>>> reported_result("CC(=O)O")
"inactive"
>>> reported_result("CC(=O)OCC(COC(C)=O)OC(C)=O")
"inactive"
>>> reported_result("CCCCCCC(CCCCCCCCCCC(=O)OCC(COC(C)=O)OC(C)=O)OC(C)=O (stereo not drawn)")
"inactive"
>>> reported_result("NC(=Nc1ccccc1)Nc1ccccc1")
"inactive"

# AC50 lookup, item `Nc1nc(Cl)nc2c1ncn2[C@H]1C[C@H](O)[C@@H](CO)O1`
1660 nM (active)

For `CCCCOC(=O)CCCCC(=O)OCCCC` then?
inactive

For CCC(C)N(C)C(=O)c1cc2ccccc2c(-c2ccccc2Cl)n1 (stereo not drawn) then?
2100 nM (active)

These data points were gathered from PubChem BioAssay (EPA / NIEHS).
